Data origin, for the record: patent US20250382354A1

Consider the following binders; for each one, report its EC50.
# target system: OC43 FP peptide (OC43), P36334
# Sequence (P36334 900-919 limits assumed): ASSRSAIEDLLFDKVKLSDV
# protocol notes: peptide ELISA
Put your answer as a value accompanied by its unit after it.

For fp.003 (antibody, V domains shown) VH: VQLVESGGGVVQPGTSLRLSCTASGFSFSNYAMHWVRQAPGKGLEWVAIISFDTRNKEFADSVKGRFSISRDNSKNSLNLQMNSLRPEDTGVYYCARDLFLSDYDSRGYEPSRGGFDYWGQGTLVTVSS VL: EIVMTQSPATLSVSPGERATLSCRASQSVSSSLAWYQQKLGQPPRLLIYGASTRATGIPARFSGSGSGTEFTLTISSLKSEDSAVYYCQQYNDWPLLSFGGGTKVEIK , write its EC50.
0.0149 µg/mL

Tell me measured EC50 for fp.001 (antibody, V domains shown) VH: VQLVESGGGVVQPGRPLRLSCSGSGFIFSNYAMHWVRQAPGKGLEWVAIISFDARNKRYADSVEGRFTISRDNSKNILYLQMNSLRLEDSAVYFCARDLFLSDYDNGVYDPTRGGFDYWGQGTLVTVSS VL: EIVMTQSPATLSLSPGERATLSCRASQSVNNRLAWYQQKLGQPPRLLISGASTRATGIPARFTGSGSGTEFTLTISSLQSEDFAVYYCQQYHDWPLLSFGGGTKVEIK please.
0.0175 µg/mL
